Listed here are compounds together with their documented hepatocyte intrinsic clearance.
- Test system: Hepatocyte
- METHOD: Intrinsic clearance in human hepatocytes assessed per million cells
- Type: ADME, cell-based

{"SMILES ENTRY": "C[C@H](c1ccc(F)cc1F)N(Cc1cccc(C(=O)O)c1)C(=O)c1cc2ccccc2cn1", "OBSERVABLE": "hepatocyte intrinsic clearance", "RESULT": "< 2 µL/min/million cells"}
{"SMILES ENTRY": "C[C@H](c1ccc(F)cc1)N(Cc1cccc(C(=O)O)c1)C(=O)c1cnc2ccccc2c1", "OBSERVABLE": "hepatocyte intrinsic clearance", "RESULT": "< 15 µL/min/million cells"}

Here's the next entry for you.
Memo: C[C@H](c1ccc(F)cc1F)N(Cc1cccc(C(=O)O)n1)C(=O)c1cc2ccccc2cn1 , reported hepatocyte intrinsic clearance: < 2.2 µL/min/million cells
